- System: MCF7
- PROTOCOL TEXT: Cytotoxicity against human MCF7 cells after 48 hrs by SRB assay
- Format: functional
- ASSAY CONDITIONS: MCF7, 48 h
RESULT TYPE: GI50 (nM)
Record the value in nM, omitting the unit from your answer.

The value of GI50 measured for the compound "COc1cnc2c(c1)C(=O)c1c-2n(CCCN2CCN(CCO)CC2)c(=O)c2cc([N+](=O)[O-])ccc12" turned out to be 142

The value of GI50 measured for the compound "COc1cnc2c(c1)C(=O)c1c-2n(CCCNC(C)C)c(=O)c2cc([N+](=O)[O-])ccc12" turned out to be 12

The value of GI50 measured for the compound "COc1cnc2c(c1)C(=O)c1c-2n(CCCN2CCN(C)CC2)c(=O)c2cc([N+](=O)[O-])ccc12" turned out to be 16

The value of GI50 measured for the compound "CC[C@@]1(O)C(=O)OCc2c1cc1n(c2=O)Cc2cc3ccccc3nc2-1" turned out to be 13

The value of GI50 measured for the compound "COc1cnc2c(c1)C(=O)c1c-2n(CCCNCCN2CCOCC2)c(=O)c2cc([N+](=O)[O-])ccc12" turned out to be 32

The value of GI50 measured for the compound "COc1cnc2c(c1)C(=O)c1c-2n(CCCBr)c(=O)c2cc([N+](=O)[O-])ccc12" turned out to be 46

The value of GI50 measured for the compound "COc1cnc2c(c1)C(=O)c1c-2n(CCCN2CCNCC2)c(=O)c2cc([N+](=O)[O-])ccc12" turned out to be 36

The value of GI50 measured for the compound "CNCCCn1c2c(c3ccc([N+](=O)[O-])cc3c1=O)C(=O)c1cc(OC)cnc1-2" turned out to be 1060

The value of GI50 measured for the compound "CCNCCCn1c2c(c3ccc([N+](=O)[O-])cc3c1=O)C(=O)c1cc(OC)cnc1-2" turned out to be 19

Hey, just so you know, these numbers are from ChEMBL document CHEMBL4007513.
